// provenance: patent US20170137410A1

Would you kindly list pIC50 for each of these compounds?
# target entity: ROS/ROS1 (Homo sapiens, UniProt P08922)
# Sequence (P08922 28-2347): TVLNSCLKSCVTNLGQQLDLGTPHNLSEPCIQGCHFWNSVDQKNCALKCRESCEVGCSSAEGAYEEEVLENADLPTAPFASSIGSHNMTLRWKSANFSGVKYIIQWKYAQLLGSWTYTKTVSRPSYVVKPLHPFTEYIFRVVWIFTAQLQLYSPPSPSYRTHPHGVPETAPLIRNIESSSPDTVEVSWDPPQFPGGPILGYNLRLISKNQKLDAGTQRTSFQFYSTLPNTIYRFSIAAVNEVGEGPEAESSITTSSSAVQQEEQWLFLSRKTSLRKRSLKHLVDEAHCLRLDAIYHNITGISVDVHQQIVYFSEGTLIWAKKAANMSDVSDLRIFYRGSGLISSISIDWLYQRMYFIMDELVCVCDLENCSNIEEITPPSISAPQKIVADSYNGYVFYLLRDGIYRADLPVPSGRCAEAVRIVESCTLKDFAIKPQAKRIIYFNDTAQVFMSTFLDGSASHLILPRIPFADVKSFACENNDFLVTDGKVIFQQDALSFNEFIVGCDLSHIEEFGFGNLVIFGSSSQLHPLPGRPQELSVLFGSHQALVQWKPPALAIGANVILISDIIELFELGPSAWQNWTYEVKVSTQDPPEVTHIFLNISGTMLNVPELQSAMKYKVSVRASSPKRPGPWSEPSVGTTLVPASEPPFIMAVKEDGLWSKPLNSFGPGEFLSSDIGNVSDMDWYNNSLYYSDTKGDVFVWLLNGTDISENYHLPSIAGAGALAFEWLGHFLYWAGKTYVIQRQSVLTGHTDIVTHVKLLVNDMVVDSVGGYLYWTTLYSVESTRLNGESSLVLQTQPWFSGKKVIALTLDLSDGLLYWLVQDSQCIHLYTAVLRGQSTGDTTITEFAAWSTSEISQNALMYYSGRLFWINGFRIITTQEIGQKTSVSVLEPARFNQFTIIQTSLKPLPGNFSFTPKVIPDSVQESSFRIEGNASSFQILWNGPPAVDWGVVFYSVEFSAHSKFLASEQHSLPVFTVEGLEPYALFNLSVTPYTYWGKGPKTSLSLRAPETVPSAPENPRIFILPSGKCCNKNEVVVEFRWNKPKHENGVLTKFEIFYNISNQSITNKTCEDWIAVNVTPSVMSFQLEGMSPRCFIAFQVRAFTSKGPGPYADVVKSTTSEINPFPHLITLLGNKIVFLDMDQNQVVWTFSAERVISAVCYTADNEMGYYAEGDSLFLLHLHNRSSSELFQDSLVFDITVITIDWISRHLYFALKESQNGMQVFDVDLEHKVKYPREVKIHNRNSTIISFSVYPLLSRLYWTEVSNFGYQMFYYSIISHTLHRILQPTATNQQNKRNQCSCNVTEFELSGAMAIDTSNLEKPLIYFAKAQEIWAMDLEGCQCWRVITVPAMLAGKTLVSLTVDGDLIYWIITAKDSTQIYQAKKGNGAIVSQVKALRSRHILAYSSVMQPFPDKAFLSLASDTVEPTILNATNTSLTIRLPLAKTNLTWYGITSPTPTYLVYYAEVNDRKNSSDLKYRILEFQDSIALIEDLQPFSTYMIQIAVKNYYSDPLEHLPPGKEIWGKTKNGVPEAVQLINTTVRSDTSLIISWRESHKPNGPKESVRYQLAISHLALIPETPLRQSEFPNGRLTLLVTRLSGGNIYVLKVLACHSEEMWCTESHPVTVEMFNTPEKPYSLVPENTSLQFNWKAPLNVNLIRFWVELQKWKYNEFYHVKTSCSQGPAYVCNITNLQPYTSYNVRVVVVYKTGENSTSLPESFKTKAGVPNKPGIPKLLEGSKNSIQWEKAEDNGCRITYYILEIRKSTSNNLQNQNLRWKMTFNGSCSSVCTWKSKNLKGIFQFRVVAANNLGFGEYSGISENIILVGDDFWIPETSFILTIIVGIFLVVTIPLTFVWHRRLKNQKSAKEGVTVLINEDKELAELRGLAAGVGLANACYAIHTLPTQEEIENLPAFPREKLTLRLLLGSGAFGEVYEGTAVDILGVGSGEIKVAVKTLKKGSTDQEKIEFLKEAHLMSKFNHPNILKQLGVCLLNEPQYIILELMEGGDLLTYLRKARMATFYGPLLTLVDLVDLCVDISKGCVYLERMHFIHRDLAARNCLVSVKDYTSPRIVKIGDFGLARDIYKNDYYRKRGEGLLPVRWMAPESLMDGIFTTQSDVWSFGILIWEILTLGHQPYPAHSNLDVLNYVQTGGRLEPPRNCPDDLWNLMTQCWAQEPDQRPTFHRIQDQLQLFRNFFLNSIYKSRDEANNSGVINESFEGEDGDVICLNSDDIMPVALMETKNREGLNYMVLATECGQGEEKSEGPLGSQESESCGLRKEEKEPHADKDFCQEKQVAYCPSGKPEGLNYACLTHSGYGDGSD
# method notes: HotSpot kinase assay against ROS/ROS1
# conditions: HotSpot 33P assay, ATP 10 μM-30 μM
pIC50: −log10 of the molar value.

Measured pIC50 for this entry CC(C)(C)c1cc(Nc2nc(N3CCC[C@H]3C(=O)N3CCC(F)(F)CC3)nc3c2CCC3)n[nH]1 [142b] on ROS/ROS1 (Homo sapiens, UniProt P08922): < 6.00

Measured pIC50 for this entry CCC(=O)N1CCN(C(=O)[C@H]2CCCN2c2nc3c(c(Nc4cc(C5CCCC5)[nH]n4)n2)CCC3)CC1 [143a] on ROS/ROS1 (Homo sapiens, UniProt P08922): 7.28

Measured pIC50 for this entry CCC(=O)N1CCN(C(=O)[C@@H]2CCCN2c2nc3c(c(Nc4cc(C5CCCC5)[nH]n4)n2)CCC3)CC1 [143b] on ROS/ROS1 (Homo sapiens, UniProt P08922): < 6.00

Measured pIC50 for this entry CC(C)c1cc(Nc2nc(N3CCC[C@H]3C(=O)N(C)c3nccs3)nc3c2CCC3)n[nH]1 [68b] on ROS/ROS1 (Homo sapiens, UniProt P08922): 8.36

Measured pIC50 for this entry CC(C)(C)c1cc(Nc2nc(N3CCC[C@@H]3C(=O)N3CCC(F)(F)CC3)nc3c2CCC3)n[nH]1 [142a] on ROS/ROS1 (Homo sapiens, UniProt P08922): < 6.00

Measured pIC50 for this entry CCN(C(=O)[C@@H]1CCCN1c1nc2c(c(Nc3cc(C(C)(C)C)[nH]n3)n1)CCC2)c1nccs1 [144b] on ROS/ROS1 (Homo sapiens, UniProt P08922): < 6.00

* * *

readout: IC50

Measured IC50 for this entry CCC(=O)N1CCN(C(=O)[C@@H]2CCCN2c2nc3c(c(Nc4cc(C5CCCC5)[nH]n4)n2)CCC3)CC1 [143b] on UniProt P00519: > 1000 nM

Measured IC50 for this entry CC(C)(C)c1cc(Nc2nc(N3CCC[C@H]3C(=O)N3CCC(F)(F)CC3)nc3c2CCC3)n[nH]1 [142b] on UniProt P00519: > 1000 nM

Measured IC50 for this entry CC(C)c1cc(Nc2nc(N3CCC[C@H]3C(=O)N(C)c3nccs3)nc3c2CCC3)n[nH]1 [68b] on UniProt P00519: 316 nM

Measured IC50 for this entry CC(C)(C)c1cc(Nc2nc(N3CCC[C@@H]3C(=O)N3CCC(F)(F)CC3)nc3c2CCC3)n[nH]1 [142a] on UniProt P00519: > 1000 nM

Measured IC50 for this entry CCC(=O)N1CCN(C(=O)[C@H]2CCCN2c2nc3c(c(Nc4cc(C5CCCC5)[nH]n4)n2)CCC3)CC1 [143a] on UniProt P00519: > 1000 nM

Measured IC50 for this entry CCN(C(=O)[C@@H]1CCCN1c1nc2c(c(Nc3cc(C(C)(C)C)[nH]n3)n1)CCC2)c1nccs1 [144b] on UniProt P00519: > 1000 nM

* * *

# target entity: activated IGF-1R (Homo sapiens, UniProt P08069)
# Construct: purchased Millipore 14-802
# Sequence (P08069 31-1367): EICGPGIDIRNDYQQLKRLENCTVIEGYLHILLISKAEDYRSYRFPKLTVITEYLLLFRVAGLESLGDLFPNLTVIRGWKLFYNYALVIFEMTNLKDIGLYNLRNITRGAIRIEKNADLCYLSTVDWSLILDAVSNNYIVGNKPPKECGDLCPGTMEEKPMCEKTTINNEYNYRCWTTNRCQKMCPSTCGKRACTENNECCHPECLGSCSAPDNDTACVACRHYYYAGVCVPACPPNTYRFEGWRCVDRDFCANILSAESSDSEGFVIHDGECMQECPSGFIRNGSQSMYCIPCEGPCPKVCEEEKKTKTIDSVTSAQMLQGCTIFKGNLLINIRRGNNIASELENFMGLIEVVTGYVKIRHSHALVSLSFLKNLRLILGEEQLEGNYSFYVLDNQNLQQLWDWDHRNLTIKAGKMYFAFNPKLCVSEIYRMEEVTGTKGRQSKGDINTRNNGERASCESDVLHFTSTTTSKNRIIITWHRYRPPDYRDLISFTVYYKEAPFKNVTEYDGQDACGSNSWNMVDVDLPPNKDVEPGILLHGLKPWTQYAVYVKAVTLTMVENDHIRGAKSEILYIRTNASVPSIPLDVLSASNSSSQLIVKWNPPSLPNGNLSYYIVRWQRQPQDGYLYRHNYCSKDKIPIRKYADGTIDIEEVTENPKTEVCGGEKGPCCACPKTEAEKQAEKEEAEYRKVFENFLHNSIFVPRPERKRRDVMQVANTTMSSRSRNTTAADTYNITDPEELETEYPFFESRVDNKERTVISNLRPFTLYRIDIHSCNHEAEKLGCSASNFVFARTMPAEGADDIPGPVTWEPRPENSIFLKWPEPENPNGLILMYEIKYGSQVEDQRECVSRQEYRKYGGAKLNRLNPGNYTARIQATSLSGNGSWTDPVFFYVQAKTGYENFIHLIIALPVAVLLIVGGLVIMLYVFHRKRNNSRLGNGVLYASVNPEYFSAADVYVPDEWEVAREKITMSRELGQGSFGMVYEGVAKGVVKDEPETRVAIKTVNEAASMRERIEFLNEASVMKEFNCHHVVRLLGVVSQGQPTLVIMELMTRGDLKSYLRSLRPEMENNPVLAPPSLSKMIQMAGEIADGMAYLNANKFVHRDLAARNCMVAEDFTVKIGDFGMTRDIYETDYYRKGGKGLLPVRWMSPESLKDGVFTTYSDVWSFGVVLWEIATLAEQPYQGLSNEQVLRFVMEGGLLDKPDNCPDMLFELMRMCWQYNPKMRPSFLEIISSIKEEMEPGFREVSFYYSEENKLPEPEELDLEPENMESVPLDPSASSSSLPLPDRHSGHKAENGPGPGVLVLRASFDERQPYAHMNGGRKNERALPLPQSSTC
# method notes: In vitro IGF-1R enzymatic assay (ADP-Glo)
# Type: biochemical
# conditions: compound 3 μM, ATP 100 μM
readout: inhibition at 3 µM (%)
Respond with the bare value in %.

response.value for CC(C)c1cc(Nc2nc(N3CCC[C@@H]3C(=O)N3CCCC3)nc3c2CCC3)n[nH]1 [138a] (field: inhibition at 3 µM) = 62

response.value for CC(C)c1cc(Nc2nc(N3CCC[C@H]3C(=O)N3CC(F)(F)C(F)(F)C3)nc3c2CCC3)n[nH]1 [112b] (field: inhibition at 3 µM) = 36

response.value for CN1CCN(C(=O)[C@@H]2CCCN2c2nc3c(c(Nc4cc(C5CCCC5)n[nH]4)n2)CCC3)CC1=O [136b] (field: inhibition at 3 µM) = 12

response.value for O=C([C@@H]1CCCN1c1nc2c(c(Nc3cc(C4CCCC4)[nH]n3)n1)CCC2)N1CC(F)(F)C(F)(F)C1 [110b] (field: inhibition at 3 µM) = 18

response.value for CC1(C)CCN(C(=O)[C@H]2CCCN2c2nc3c(c(Nc4cc(C5CCCC5)n[nH]4)n2)CCC3)CC1 [141a] (field: inhibition at 3 µM) = 47

response.value for CN(C(=O)[C@@H]1CCCN1c1nc2c(c(Nc3cc(C4CCCC4)n[nH]3)n1)CCC2)c1nccs1 [70b] (field: inhibition at 3 µM) = 57

response.value for CN(C)C(=O)[C@@H]1CCCN1c1nc2c(c(Nc3cc(C4CCOCC4)[nH]n3)n1)CCC2 [91b] (field: inhibition at 3 µM) = 4

response.value for O=C([C@H]1CCCN1c1nc2c(c(Nc3cc(C4CCCC4)[nH]n3)n1)CCC2)N1CC(F)(F)C(F)(F)C1 [110a] (field: inhibition at 3 µM) = 61

response.value for CC(=O)N1CCN(C(=O)[C@@H]2CCCN2c2nc3c(c(Nc4cc(C5CCCC5)n[nH]4)n2)CCC3)CC1 [137b] (field: inhibition at 3 µM) = -1

response.value for CC(C)c1cc(Nc2nc(N3CCC[C@H]3C(=O)N3CCCC3)nc3c2CCC3)n[nH]1 [138b] (field: inhibition at 3 µM) = 57

response.value for CC1(C)CCN(C(=O)[C@@H]2CCCN2c2nc3c(c(Nc4cc(C5CCCC5)n[nH]4)n2)CCC3)CC1 [135b] (field: inhibition at 3 µM) = 14

response.value for O=C([C@@H]1CCCN1c1nc2c(c(Nc3cc(C4CCCC4)[nH]n3)n1)CCC2)N1CCC(F)(F)C1 [109b] (field: inhibition at 3 µM) = 33

response.value for CN1CCN(C(=O)[C@@H]2CCCN2c2nc3c(c(Nc4cc(C5CCCC5)[nH]n4)n2)CCC3)CC1 [134b] (field: inhibition at 3 µM) = 26

response.value for CN(C)C(=O)[C@H]1CCCN1c1nc2c(c(Nc3cc(C4CCOCC4)[nH]n3)n1)CCC2 [91a] (field: inhibition at 3 µM) = 14
